# procedureSummary: mn = molality of the nth substance listed, in mol/kg
# measurementConditions: 303.15 K; 101 kPa; Liquid; Alternating current cell with electrodes; m1 = 0.05
measuredProperty: electrical conductivity (S/m)
Respond numerically; units are S/m and should not be typed.

Examples with their reported electrical conductivity follow.
molecule	endpointValue
CC(C)[C@H](NC(=O)CN)C(=O)O [glycyl-L-valine] + O	0.00374
NCC(=O)NCC(=O)O [glycylglycine] + O	0.00385
NCC(=O)N[C@@H](CCC(N)=O)C(=O)O [glycyl-l-glutamine] + O	0.00392

Continue with the molecule presented below.
Field request: electrical conductivity | item: C[C@H](N)C(=O)N[C@@H](CCC(N)=O)C(=O)O [L-alanyl-L-glutamine] + O 0.00391
